The measured values listed here are drawn from patent US12466813B2.

Target: RING1B-BMI1 (Homo sapiens)
Sequence (Q99496 1-336): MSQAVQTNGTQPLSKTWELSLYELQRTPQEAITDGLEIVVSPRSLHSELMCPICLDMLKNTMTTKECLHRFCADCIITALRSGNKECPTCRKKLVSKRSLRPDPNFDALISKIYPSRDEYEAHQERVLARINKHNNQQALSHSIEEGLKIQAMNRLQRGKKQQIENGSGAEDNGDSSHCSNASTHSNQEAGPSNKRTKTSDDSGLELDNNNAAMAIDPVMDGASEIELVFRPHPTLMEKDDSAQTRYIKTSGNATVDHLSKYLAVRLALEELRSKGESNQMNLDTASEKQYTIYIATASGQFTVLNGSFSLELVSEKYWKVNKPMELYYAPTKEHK
Sequence (P35226 1-326 partner): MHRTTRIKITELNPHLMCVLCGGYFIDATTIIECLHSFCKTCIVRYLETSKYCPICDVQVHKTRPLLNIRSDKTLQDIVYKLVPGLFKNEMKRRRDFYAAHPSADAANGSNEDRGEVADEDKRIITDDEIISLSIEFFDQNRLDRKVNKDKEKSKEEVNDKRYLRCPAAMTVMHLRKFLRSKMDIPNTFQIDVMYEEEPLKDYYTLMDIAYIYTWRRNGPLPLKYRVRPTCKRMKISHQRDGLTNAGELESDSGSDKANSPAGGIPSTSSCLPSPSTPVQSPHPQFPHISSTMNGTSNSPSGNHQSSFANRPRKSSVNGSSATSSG
Experiment: KD classes of Table A (direct binding to Ring1B-Bmi1)
Conditions: class given in Table A
MEASURE NAME: Kd

Below, each entry is followed by its recorded Kd result.
[[record]]
compound = "Cn1ccc2c(-c3[nH]c(C(=O)O)c4c3CCCC4)cccc21"
study_system = "RING1B-BMI1 (Homo sapiens)"
measure_name = "Kd"
value_reported = "> 100 µM"

[[record]]
compound = "COCc1ccc2[nH]ccc2c1-c1c(C(=O)O)[nH]c(-c2cc(F)cc3[nH]ccc23)c1C(C)C"
study_system = "RING1B-BMI1 (Homo sapiens)"
measure_name = "Kd"
value_reported = "< 20 µM"

[[record]]
compound = "CC(C)c1c(-c2cc(F)cc3[nH]ccc23)[nH]c(C(=O)O)c1-c1ccc(Oc2nccs2)cc1"
study_system = "RING1B-BMI1 (Homo sapiens)"
measure_name = "Kd"
value_reported = "< 20 µM"

[[record]]
compound = "COc1cc(Cl)c(-c2c(C(=O)O)[nH]c(-c3cccc4[nH]ccc34)c2C(C)C)cc1[N+](=O)[O-]"
study_system = "RING1B-BMI1 (Homo sapiens)"
measure_name = "Kd"
value_reported = "< 20 µM"

[[record]]
compound = "CC(C)c1c(-c2cc(F)cc3[nH]ccc23)[nH]c(C(=O)O)c1-c1cccc2[nH]ccc12"
study_system = "RING1B-BMI1 (Homo sapiens)"
measure_name = "Kd"
value_reported = "< 20 µM"


Recall and state the measured Kd for CC(C)c1c(-c2cccc3c2ccn3N)[nH]c(C(=O)O)c1-c1cccc2[nH]ccc12 .
< 20 µM

Fill in Kd for record CC(C)c1c(-c2cccc3[nH]ccc23)[nH]c(C(=O)O)c1-c1cc([N+](=O)[O-])c(O)cc1Cl
< 20 µM

Return Kd (reported value) for this compound: Cc1c[nH]c2cccc(-c3[nH]c(C(=O)O)c(-c4c(Cl)ccc5[nH]ccc45)c3C(C)C)c12
< 20 µM

# return recorded Kd for entry CC(C)c1c(-c2cc(F)cc3[nH]ccc23)[nH]c(C(=O)O)c1-c1cc(Cl)cc2[nH]ccc12
< 20 µM

Retrieve Kd measured for CC(C)c1c(-c2cc(F)cc3[nH]ccc23)[nH]c(C(=O)O)c1-c1cc(OCC(=O)O)ccc1Cl and print it.
< 20 µM

Given CC(C)c1c(-c2cc(F)cc3[nH]ccc23)[nH]c(C(=O)O)c1-c1c(F)ccc2[nH]ccc12 , respond with its Kd.
< 20 µM

Give the reported Kd for this compound. O=C(O)c1ccc(-c2cccc(OCc3ccccc3)c2)[nH]1
> 100 µM
